Experiment: melting temperature; fluorescence melt of hairpins on a sequencing array, two-state fit, raised by 9.35 °C to match UV melts
Conditions: sodium 0.088 M
Assign condition met to entries whose Tm meets or exceeds 50 °C; assign condition not met to the rest.

// known answers, use as guide
GCGAGCGAAAGCTCTCGC ((((((....)))..))); condition met
GCTGTGCGAAAGCAGCGC ((..(((....)))..)); condition met
GGGTGCGAAAGCACACCC ((((((....)))..))); condition met

Next sequence, please.
I'd appreciate it if you could say whether GATCCCAAGCGGGATC ((((((....)))))) has Tm at least equal to 50 °C.
condition met

---

Experiment: melting temperature; fluorescence melt of hairpins on a sequencing array, two-state fit, raised by 9.35 °C to match UV melts
Settings: sodium 0.088 M
Parameter Measured: Tm
Please answer using a numeric value trailed by its unit.

GATGTACGAAAGTAGATC (((.(((....))).))); 44 °C
GATCATCGTAATGATC ((((((....)))))); 48.5 °C
GATCATGGGATGATC ((((((...)))))); 44.6 °C
GATCTGAATCCAGATC ((((((....)))))); 46 °C
GGTTCTGGAAACAAAACC ((((.((....)).)))); 28.5 °C
GCGAAACGAAAGTTACGC (((.(((....))).))); 58.6 °C
GGCGTCTCGAAAGAGGCC (((..(((....)))))); 53 °C
GATCAAGCTTTGATC ((((((...)))))); 43.4 °C
GGAGGTGGAAACACCCCC ((.((((....)))).)); 49.1 °C
GCGACCTTTCGC ((((....)))); 47 °C

Could you tell me which Tm is on file for GATCGAGTACTCGATC ((((((....)))))) ?
58.8 °C

# query: Tm of entry GAGTGTGCGAAAGCACTC (((..(((....))))))
37.8 °C

---

Assay: melting temperature; fluorescence melt of hairpins on a sequencing array, two-state fit, raised by 9.35 °C to match UV melts
Conditions: sodium 0.088 M
Parameter Measured: Tm (°C)
State just the number; it will be interpreted in °C.

Quick one: Tm for GATCTCGGAAACGAGATC (((((((....))))))) ?
64.3

Reported Tm, sequence GCACTCGGAAACGAATGC (((.(((....))).))) : ____
45.1

---

Experiment: melting temperature; fluorescence melt of hairpins on a sequencing array, two-state fit, raised by 9.35 °C to match UV melts
Conditions: sodium 0.088 M
Parameter Measured: Tm (°C)
The answer is to be given in °C; state only the numeric part.

GGTCCTGGAAACAGGATC (.(((((....))))).); 51
GATCTCCTCCGAGATC ((((((....)))))); 51.4
GCCCGGCGAAAGCTTGGC (((..((....))..))); 52.4
CGATCGGAAACGAGGTCG ((((((....)))..))); 31
GTTCAAGGAAACCTGAAC (((((.(....).))))); 35.6

Consider the sequence CGATGGCGGAAACGCTCG (((..(((....)))))) and give its measured Tm.
38.5

Which Tm reading was recorded for the sequence GAACGCGAAAGCGTATTC ((((((....)))..))) ?
35.8

Which measured Tm value corresponds to GAAATGAAAATTTC (((((....))))) ?
30.1

These data points were gathered from the array DNA melting data of Ke et al. (doi:10.1101/2024.01.08.574731).
